- ASSAY_SYSTEM: Adenosine receptor A1 (Rattus norvegicus, UniProt P25099)
- Sequence (P25099 whole entry): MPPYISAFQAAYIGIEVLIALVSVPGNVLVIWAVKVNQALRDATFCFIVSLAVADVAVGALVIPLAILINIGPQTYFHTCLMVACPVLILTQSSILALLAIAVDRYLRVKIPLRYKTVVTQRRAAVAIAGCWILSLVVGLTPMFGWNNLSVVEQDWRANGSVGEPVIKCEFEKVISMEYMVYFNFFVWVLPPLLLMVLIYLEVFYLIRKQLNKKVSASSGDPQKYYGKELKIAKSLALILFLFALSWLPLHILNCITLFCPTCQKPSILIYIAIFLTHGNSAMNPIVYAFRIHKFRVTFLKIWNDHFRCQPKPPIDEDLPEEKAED
pKi: −log10 of the molar value.
// cross-study collection: pKi for Adenosine receptor A1 (Rattus norvegicus, UniProt P25099)

>  <COMPOUND>
CCc1nc2sc3c(c2c2n[nH]c(=S)n12)CCCC3

>  <QUAL>
=

>  <pKi>
5.93

$$$$
>  <COMPOUND>
CC(CNc1ncnc2c1ncn2[C@@H]1O[C@H](CO)[C@@H](O)[C@H]1O)c1ccccc1 (mixture of isomers)

>  <QUAL>
=

>  <pKi>
8.62

$$$$
>  <COMPOUND>
OC[C@H]1OC(n2cnc3c(NCc4cccc5ccccc45)nc(F)nc32)[C@H](O)[C@@H]1O (stereo not given in full)

>  <QUAL>
=

>  <pKi>
7.74

$$$$
>  <COMPOUND>
Nc1ncnc2c1ncn2[C@@]12C[C@H]1[C@H](CO)[C@@H](O)[C@H]2O (racemic)

>  <QUAL>
<

>  <pKi>
4.00

$$$$
>  <COMPOUND>
CNC(=O)[C@H]1O[C@@H](n2cnc3c(NCc4ccccc4)ncnc32)[C@H](O)[C@@H]1O

>  <QUAL>
=

>  <pKi>
5.62

$$$$
>  <COMPOUND>
O=c1[nH]cnc2c1c1ccccc1n2-c1ccccc1

>  <QUAL>
=

>  <pKi>
6.06

$$$$
>  <COMPOUND>
CCCn1c(=O)[nH]c2nc(-c3ccc(S(=O)(=O)Oc4ccc([N+](=O)[O-])cc4)cc3)[nH]c2c1=O

>  <QUAL>
=

>  <pKi>
8.44

$$$$
>  <COMPOUND>
C=CCn1c(=O)c2c(nc(-c3ccc(C(F)(F)F)cc3)n2C)n(C)c1=O

>  <QUAL>
=

>  <pKi>
5.24

$$$$
>  <COMPOUND>
CCCn1c(=O)c2nc(-c3cc(O)ccc3O)[nH]c2n(CCC)c1=O

>  <QUAL>
=

>  <pKi>
6.44

$$$$
>  <COMPOUND>
COc1ccc(CC(=O)Nc2nc(SC)nc3nc(-c4ccco4)nn23)cc1

>  <QUAL>
=

>  <pKi>
5.30

$$$$
>  <COMPOUND>
COc1ccc(Cl)cc1C(=O)Nc1nc(-c2ccccc2)nc2c1nnn2Cc1ccccc1

>  <QUAL>
=

>  <pKi>
5.15

$$$$
>  <COMPOUND>
Cc1ccccc1NC(=O)Cc1ccc(Nc2ncnc3c2ncn3C2O[C@H](CO)[C@@H](O)[C@H]2O)cc1 (stereo not given in full)

>  <QUAL>
=

>  <pKi>
8.17

$$$$
>  <COMPOUND>
Cn1c(=O)[nH]c2cc(-c3ccccc3)[nH]c2c1=O

>  <QUAL>
=

>  <pKi>
7.01

$$$$
>  <COMPOUND>
CONc1nc([N+](=O)[O-])nc2c1ncn2[C@@H]1O[C@H](CO)[C@@H](O)[C@H]1O

>  <QUAL>
=

>  <pKi>
5.94

$$$$
>  <COMPOUND>
Cn1c(=O)c2c(cc(-c3ccc4ccccc4c3)n2C)n(C)c1=O

>  <QUAL>
=

>  <pKi>
6.57

$$$$
>  <COMPOUND>
C[C@@H](Cc1ccccc1)Nc1ncnc2c1ncn2[C@]1(C)O[C@H](CO)[C@@H](O)[C@H]1O

>  <QUAL>
=

>  <pKi>
6.57

$$$$
>  <COMPOUND>
C#CCn1c(=O)c2[nH]c(Cc3cccs3)nc2n(Cc2ccco2)c1=O

>  <QUAL>
=

>  <pKi>
6.66

$$$$
>  <COMPOUND>
CC(C)CCn1c(=O)c2[nH]c(-c3ccc(S(=O)(=O)O)cc3)nc2n(CC(C)C)c1=O

>  <QUAL>
=

>  <pKi>
5.46

$$$$
>  <COMPOUND>
Cc1c(C)n([C@@H](C)c2ccccc2)c2nc(-c3ccc(Cl)cc3)nc(N)c12

>  <QUAL>
=

>  <pKi>
6.06

$$$$
>  <COMPOUND>
Cn1c(=O)c2c(nc3n2CCCN3Cc2ccco2)n(C)c1=O

>  <QUAL>
=

>  <pKi>
5.46

$$$$

* * *

// cross-study collection: Ki for Adenosine receptor A1 (Rattus norvegicus)

>  <COMPOUND>
Nc1nc(Cl)nc2c1ncn2[C@@H]1S[C@H](CO)[C@@H](O)[C@@H]1O

>  <QUAL>
=

>  <Ki [µM]>
5.36

$$$$
>  <COMPOUND>
Nc1ncnc2c1c(C(=O)O)c(C(=O)O)n2-c1ccccc1

>  <QUAL>
=

>  <Ki [µM]>
67

$$$$
>  <COMPOUND>
Cc1ccc([C@@H](C)n2c3ccccc3c3c(N)nc(-c4ccccc4)nc32)cc1

>  <QUAL>
=

>  <Ki [µM]>
0.014

$$$$
>  <COMPOUND>
CCCCC#Cc1nc(N)c2ncn(C3O[C@H](CNS(C)(=O)=O)[C@@H](O)[C@H]3O)c2n1 (stereo not given in full)

>  <QUAL>
>

>  <Ki [µM]>
0.472

$$$$
>  <COMPOUND>
CCn1c(=O)c2[nH]c(Cc3cccs3)nc2n(Cc2ccco2)c1=O

>  <QUAL>
=

>  <Ki [µM]>
0.468

$$$$
>  <COMPOUND>
Cn1c(=O)c2c(nc3n2CCCN3Cc2c(F)cccc2Cl)n(C)c1=O

>  <QUAL>
=

>  <Ki [µM]>
1.55

$$$$
>  <COMPOUND>
Nc1nc(-c2ccccc2)nc2oc(-c3ccc(Cl)cc3)nc12

>  <QUAL>
>

>  <Ki [µM]>
1

$$$$
>  <COMPOUND>
Nc1nc2c(nnn2Cc2cccc(F)c2)c2nc(-c3ccco3)nn12

>  <QUAL>
=

>  <Ki [µM]>
0.019

$$$$
>  <COMPOUND>
OC[C@H]1OC(n2cnc3c(NC4CCCCC4)nc(O)nc32)[C@H](O)[C@@H]1O (stereo not given in full)

>  <QUAL>
=

>  <Ki [µM]>
0.04

$$$$
>  <COMPOUND>
Nc1nc(NCCN2CCN(c3ccc(F)cc3F)CC2)nc2nc(-c3ccco3)nn12

>  <QUAL>
=

>  <Ki [µM]>
1.1

$$$$

* * *

- ASSAY_SYSTEM: Adenosine receptor A1 (Rattus norvegicus, UniProt P25099)
- Sequence (P25099 whole entry): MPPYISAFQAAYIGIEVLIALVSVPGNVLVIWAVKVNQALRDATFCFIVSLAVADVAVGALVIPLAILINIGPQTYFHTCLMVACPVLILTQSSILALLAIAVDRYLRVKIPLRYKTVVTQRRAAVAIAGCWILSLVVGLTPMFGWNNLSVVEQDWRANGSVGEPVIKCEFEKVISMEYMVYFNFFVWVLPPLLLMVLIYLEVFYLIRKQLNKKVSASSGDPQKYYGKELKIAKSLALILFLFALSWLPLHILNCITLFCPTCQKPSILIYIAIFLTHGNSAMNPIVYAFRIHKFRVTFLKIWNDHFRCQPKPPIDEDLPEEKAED
pKi: −log10 of the molar value.
// cross-study collection: pKi for Adenosine receptor A1 (Rattus norvegicus, UniProt P25099)

>  <COMPOUND>
CC(C)NS(=O)(=O)c1ccc(-c2nc3c([nH]2)c(=O)n(C)c(=O)n3C)cc1

>  <pKi>
7.12

$$$$
>  <COMPOUND>
Cn1c(=O)c2c(nc3n2CCCN3Cc2cccc(Cl)c2)n(C)c1=O

>  <pKi>
5.85

$$$$
>  <COMPOUND>
OC[C@H]1OC(n2cnc3c(NN4CCOCC4)ncnc32)[C@H](O)[C@@H]1O (stereo not given in full)

>  <pKi>
4.81

$$$$
>  <COMPOUND>
CCCN1C(=O)N2C[C@@H](CC(C)C)N=C2c2[nH]c(C34CCC(O)(CC3)CC4)nc21

>  <pKi>
6.77

$$$$
>  <COMPOUND>
C[C@@H](Cc1ccccc1)Nc1[nH]c2ccccc2c2ncnc1-2

>  <pKi>
5.82

$$$$
>  <COMPOUND>
CCCCn1c(=O)c2c(ncn2C2O[C@H](C(=O)OC)[C@@H](O)[C@H]2O)n(CCCC)c1=O (stereo not given in full)

>  <pKi>
5.43

$$$$
>  <COMPOUND>
Nc1nc(N2CCN(Cc3ccccn3)CC2)nc2nc(-c3ccco3)nn12

>  <pKi>
5.57

$$$$
>  <COMPOUND>
CC(C)Oc1ccc(C(=O)Nc2nc(-c3ccccn3)cs2)cc1

>  <pKi>
5.24

$$$$
>  <COMPOUND>
CC(O)CNc1ncnc2c1ncn2C1O[C@H](CO)[C@@H](O)[C@H]1O (stereo not given in full)

>  <pKi>
8.30

$$$$
>  <COMPOUND>
Nc1nc(C#CC2CCCC2)nc2c1ncn2[C@@H]1O[C@H](CO)[C@@H](O)[C@H]1O

>  <pKi>
7.06

$$$$
